Some compounds, each annotated with its measured melting point.

Known results for compounds:
COCc1cc(O[C@@H]2c3ccccc3C[C@H]2O)c2nc(C)c(C)n2c1 (relative stereo) [Example 11] : 142 to 143 °C
Cc1nc2c(O[C@@H]3c4ccccc4C[C@H]3O)cc(C(=O)O)cn2c1C (relative stereo) [Example 8] : 229 to 231 °C
Cc1nc2c(N[C@@H]3c4ccccc4C[C@H]3O)cc(C(=O)O)cn2c1C (relative stereo) [Example 2] : 246 to 249 °C
Cc1nc2c(O[C@@H]3c4ccccc4CC[C@H]3O)cc(C(=O)N(C)C)cn2c1C.Cl (relative stereo) [Example 15] : 129 °C

API: the following record is the query input.
Asked: I would be grateful if you could share the reported melting point for COC(=O)c1cc(N[C@@H]2c3ccccc3C[C@H]2O)c2nc(C)c(C)n2c1 (relative stereo) [Example 1] .
Given back: 261 to 262 °C
